All figures here come from the supplement of paper PMC8728848.

Listing of recorded glycan array binding signal (z-score) by entry.
target: Fuc(a1-2)[Gal(a1-3)]Gal(b1-4)GlcNAc(b1-3)[Fuc(a1-2)[Gal(a1-3)]Gal(b1-4)GlcNAc(b1-6)]GalNAc; assay: glycan array binding signal (z-score within array); higher = stronger binding; conditions: glycan notation: IUPAC condensed, linker removed
This excerpt belongs to a sample that is enriched for the strongest signals.

Prompt: For XTP3-B-MRH1 (Homo sapiens), Q96DZ1 (protein) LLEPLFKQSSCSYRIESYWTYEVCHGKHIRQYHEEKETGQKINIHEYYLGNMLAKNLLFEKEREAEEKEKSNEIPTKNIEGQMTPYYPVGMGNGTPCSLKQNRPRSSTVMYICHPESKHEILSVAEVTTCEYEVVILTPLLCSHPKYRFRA , what is its reported glycan array binding signal (z-score)?
Response: 0.358

Prompt: State the recorded glycan array binding signal (z-score) for this entry: B936 (Bifidobacterium sp) (protein) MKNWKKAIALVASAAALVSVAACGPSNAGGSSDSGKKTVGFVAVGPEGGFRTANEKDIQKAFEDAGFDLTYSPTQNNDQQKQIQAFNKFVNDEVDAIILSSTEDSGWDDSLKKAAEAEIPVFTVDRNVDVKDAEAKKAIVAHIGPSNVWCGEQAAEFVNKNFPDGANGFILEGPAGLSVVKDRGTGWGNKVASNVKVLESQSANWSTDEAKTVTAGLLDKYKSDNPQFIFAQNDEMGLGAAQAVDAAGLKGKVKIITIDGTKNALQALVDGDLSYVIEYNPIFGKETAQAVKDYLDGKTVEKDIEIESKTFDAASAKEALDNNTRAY
Response: -0.277
